Just for reference, patent US20210278408A1 is where these values come from.

Tested on: 407 cancer cell lines
Procedure Details: Cell viability of cancer cell lines (IC50), CellTiter-Glo Viability Assay, 96 h
Format: cell-based
Experimental Setup: Homo sapiens, ZR-75-30, 96 h; read-out: Absolute IC50
pIC50: −log10 of the molar value.
Result Type: pIC50

pIC50 for Cc1nn(-c2nc(-c3ccc(C(F)(F)F)cc3)c(SC(C)C)s2)c(C(=O)O)c1-c1cccc(F)c1 [Compound A197] ?
< 4.52

---

Test system: 407 cancer cell lines
Procedure Details: Cell viability of cancer cell lines (IC50), CellTiter-Glo Viability Assay, 96 h
Format: cell-based
Experimental Setup: HCC 94 cells, 96 h; read-out: Absolute IC50
Result Type: pIC50
Conceptually, pIC50 converts a concentration in mol/L into minus its log10.

Consider the compound shown here: N.N.[Cl][Pt][Cl] [Cisplatin, reference compound] What is its recorded pIC50?
5.70

---

Test system: 407 cancer cell lines
Procedure Details: Cell viability of cancer cell lines (IC50), CellTiter-Glo Viability Assay, 96 h
Format: cell-based
Experimental Setup: MIA PaCa-2; read-out: Absolute IC50
Description: Viability was determined by using the 50% inhibitory concentration (IC50) as determined with the CellTiter-Glo® Viability Assay (Promega). Experiments were initiated by first thawing and equilibrating the CellTiter-Glo® Buffer to room temperature. The lyophilized CellTiter-Glo® Substrate was also equilibrated to room temperature. […] Cells were harvested during the logarithmic growth period, counted, and the cell concentration adjusted to 4.44×10^4 cells/mL using culture medium. […]
Result Type: pIC50
Interpret pIC50 as the negative base-10 log of the concentration measured in mol/L.

I am curious: what pIC50 value has been reported for N.N.[Cl][Pt][Cl] [Cisplatin, reference compound] ?
5.56

---

Test system: 407 cancer cell lines
Procedure Details: Cell viability of cancer cell lines (IC50), CellTiter-Glo Viability Assay, 96 h
Type: cell-based
Experimental Setup: MV-4-11 cells, 96 h; read-out: Absolute IC50
Result Type: pIC50
Please express pIC50 as -log10 of the molar concentration.

Entry N.N.[Cl][Pt][Cl] [Cisplatin, reference compound] has what pIC50?
6.39

---

Test system: 407 cancer cell lines
Procedure Details: Cell viability of cancer cell lines (IC50), CellTiter-Glo Viability Assay, 96 h
Assay type: cell-based
Experimental Setup: HepG2/C3A, 96 h, Hep G2/C3A, 96 h; read-out: Absolute IC50
pIC50: −log10 of the molar value.
Result Type: pIC50

// pIC50 lookup, key: Cc1nn(-c2nc(-c3ccc(C(F)(F)F)cc3)c(SC(C)C)s2)c(C(=O)O)c1-c1cccc(F)c1 [Compound A197]
< 4.52

---

Test system: 407 cancer cell lines
Procedure Details: Cell viability of cancer cell lines (IC50), CellTiter-Glo Viability Assay, 96 h
Type: cell-based
Experimental Setup: Homo sapiens, NALM-6, NALM-6; read-out: Absolute IC50
Result Type: IC50 (nM)
Kindly provide the numeric value in nM only, without the unit symbol.

Item: Cc1nn(-c2nc(-c3ccc(C(F)(F)F)cc3)c(SC(C)C)s2)c(C(=O)O)c1-c1cccc(F)c1 Test system: 407 cancer cell lines Read-out: IC50 Value: ?
700

---

Tested on: 407 cancer cell lines
Procedure Details: Cell viability of cancer cell lines (IC50), CellTiter-Glo Viability Assay, 96 h
Format: cell-based
Experimental Setup: A549 cells, 96 h; read-out: Absolute IC50
Result Type: IC50 (µM)
Report the figure in µM without appending any unit label.

Please look up its IC50: N.N.[Cl][Pt][Cl] [Cisplatin, reference compound]
4.35

---

System: 407 cancer cell lines
Procedure Details: Cell viability of cancer cell lines (IC50), CellTiter-Glo Viability Assay, 96 h
Type: cell-based
Experimental Setup: SW1990; read-out: Absolute IC50
Result Type: IC50
Answer as a quantity: numeral, then unit.

# input molecule: N.N.[Cl][Pt][Cl] [Cisplatin, reference compound] ; wanted: its IC50
850 nM

---

Test system: 407 cancer cell lines
Procedure Details: Cell viability of cancer cell lines (IC50), CellTiter-Glo Viability Assay, 96 h
Assay type: cell-based
Experimental Setup: Li-7, Li-7; read-out: Absolute IC50
Result Type: pIC50
In plain terms, pIC50 is the concentration in mol/L turned into minus its base-10 logarithm.

# lookup: pIC50 of Cc1nn(-c2nc(-c3ccc(C(F)(F)F)cc3)c(SC(C)C)s2)c(C(=O)O)c1-c1cccc(F)c1 [Compound A197]
6.07

---

Tested on: 406 cancer cell lines, 73 blood tumor cell lines and 333 solid tumor cell lines
Procedure Details: OmniScreen drug efficacy on cancer cell lines, fitted area under curve (AUC) of dose-response
Format: cell-based
Experimental Setup: Homo sapiens, NCI-H526, NCI-H526, Lung
Result Type: IC50 (µM)
Give a bare numeral; the unit µM is implied.

// lookup IC50 | system=406 cancer cell lines, 73 blood tumor cell lines and 333 solid tumor cell lines | key= Cc1nn(-c2nc(-c3ccc(C(F)(F)F)cc3)c(SC(C)C)s2)c(C(=O)O)c1-c1cccc(F)c1 [Compound A197]
212

---

System: 407 cancer cell lines
Procedure Details: Cell viability of cancer cell lines (IC50), CellTiter-Glo Viability Assay, 96 h
Format: cell-based
Experimental Setup: Homo sapiens, ACHN, 96 h, ACHN cells, 96 h; read-out: Absolute IC50
Procedure: Viability was determined by using the 50% inhibitory concentration (IC50) as determined with the CellTiter-Glo® Viability Assay (Promega). Experiments were initiated by first thawing and equilibrating the CellTiter-Glo® Buffer to room temperature. The lyophilized CellTiter-Glo® Substrate was also equilibrated to room temperature. […] Cells were harvested during the logarithmic growth period, counted, and the cell concentration adjusted to 4.44×10^4 cells/mL using culture medium. […]
Result Type: IC50

Need IC50, item Cc1nn(-c2nc(-c3ccc(C(F)(F)F)cc3)c(SC(C)C)s2)c(C(=O)O)c1-c1cccc(F)c1
790 nM

---

Tested on: 407 cancer cell lines
Procedure Details: Cell viability of cancer cell lines (IC50), CellTiter-Glo Viability Assay, 96 h
Assay type: cell-based
Experimental Setup: Homo sapiens, CAL-27, 96 h, CAL-27 cells, 96 h; read-out: Absolute IC50
Result Type: IC50
Kindly format the answer as number then unit.

# get_value(readout='IC50', item= Cc1nn(-c2nc(-c3ccc(C(F)(F)F)cc3)c(SC(C)C)s2)c(C(=O)O)c1-c1cccc(F)c1 )
3.95 µM

---

Tested on: 407 cancer cell lines
Procedure Details: Cell viability of cancer cell lines (IC50), CellTiter-Glo Viability Assay, 96 h
Assay type: cell-based
Experimental Setup: 8505C; read-out: Absolute IC50
Result Type: pIC50
As a rule, pIC50 stands for the negative log10 of the concentration, concentration in M.

Which value of pIC50 has been reported for N.N.[Cl][Pt][Cl] [Cisplatin, reference compound] in the records?
5.70

---

Tested on: 407 cancer cell lines
Procedure Details: Cell viability of cancer cell lines (IC50), CellTiter-Glo Viability Assay, 96 h
Assay type: cell-based
Experimental Setup: MDA-MB-453; read-out: Absolute IC50
Result Type: IC50 (µM)
Write the value in µM as a bare number.

// returns reported IC50 for input N.N.[Cl][Pt][Cl] [Cisplatin, reference compound]
4.86

---

System: 407 cancer cell lines
Procedure Details: Cell viability of cancer cell lines (IC50), CellTiter-Glo Viability Assay, 96 h
Type: cell-based
Experimental Setup: Homo sapiens, UO-31, 96 h, UO.31 cells, 96 h; read-out: Absolute IC50
pIC50: −log10 of the molar value.
Result Type: pIC50

Value lookup for pIC50; key = Cc1nn(-c2nc(-c3ccc(C(F)(F)F)cc3)c(SC(C)C)s2)c(C(=O)O)c1-c1cccc(F)c1 [Compound A197]
< 4.52

---

System: 407 cancer cell lines
Procedure Details: Cell viability of cancer cell lines (IC50), CellTiter-Glo Viability Assay, 96 h
Format: cell-based
Experimental Setup: Homo sapiens, HCC1954, HCC1954; read-out: Absolute IC50
pIC50: −log10 of the molar value.
Result Type: pIC50

Which pIC50 is reported for this molecule? Cc1nn(-c2nc(-c3ccc(C(F)(F)F)cc3)c(SC(C)C)s2)c(C(=O)O)c1-c1cccc(F)c1
< 4.52

---

Test system: 406 cancer cell lines, 73 blood tumor cell lines and 333 solid tumor cell lines
Procedure Details: OmniScreen drug efficacy on cancer cell lines, fitted area under curve (AUC) of dose-response
Format: cell-based
Experimental Setup: SNU-719, Stomach/Gastric
Result Type: IC50 (µM)
Output spec: scalar in µM, unitless text.

// query IC50 value for entry Cc1nn(-c2nc(-c3ccc(C(F)(F)F)cc3)c(SC(C)C)s2)c(C(=O)O)c1-c1cccc(F)c1
1320

---

Tested on: 407 cancer cell lines
Procedure Details: Cell viability of cancer cell lines (IC50), CellTiter-Glo Viability Assay, 96 h
Type: cell-based
Experimental Setup: DV-90 cells, 96 h; read-out: Absolute IC50
Result Type: IC50

Param item = N.N.[Cl][Pt][Cl] [Cisplatin, reference compound] ; retrieve measured IC50.
3.25 µM
